biological target: PDE4B2 (Homo sapiens); experiment: 5FOA growth assay in fission yeast strain expressing PDE4B2; type: cell-based; design: targets used in the assays are full-length proteins (as opposed to simply the catalytic domain); expressed in transfected cells; host or cells: Schizosaccharomyces pombe; details: OD600 0.6; read-out: ED50 for 5FOA growth assays, PDE4B2
Sequence (Q07343 1-564 isoform Q07343-2, species assumed): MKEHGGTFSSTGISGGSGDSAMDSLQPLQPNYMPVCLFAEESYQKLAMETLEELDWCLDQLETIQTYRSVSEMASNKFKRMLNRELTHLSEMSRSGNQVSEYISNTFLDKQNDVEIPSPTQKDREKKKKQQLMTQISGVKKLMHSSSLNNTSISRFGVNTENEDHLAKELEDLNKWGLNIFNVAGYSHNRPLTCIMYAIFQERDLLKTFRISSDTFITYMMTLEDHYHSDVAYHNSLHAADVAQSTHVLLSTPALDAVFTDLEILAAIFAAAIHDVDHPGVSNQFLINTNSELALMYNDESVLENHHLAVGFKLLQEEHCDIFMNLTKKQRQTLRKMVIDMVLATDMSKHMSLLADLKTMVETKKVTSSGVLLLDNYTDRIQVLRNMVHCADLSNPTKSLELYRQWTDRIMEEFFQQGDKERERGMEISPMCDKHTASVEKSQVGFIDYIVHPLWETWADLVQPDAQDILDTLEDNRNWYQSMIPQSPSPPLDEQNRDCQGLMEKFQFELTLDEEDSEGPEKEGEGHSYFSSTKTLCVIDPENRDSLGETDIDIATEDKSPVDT
measurement-label: EC50

Tell me the measured EC50 of "Cc1sc2ncnc(Nc3ccccc3)c2c1C" , please.
> 200 µM

---

tested on: PDE2A, PDE4A, PDE4B, Cgs2; assay: Parallel high throughput 5FOA growth screens of bioactive libraries; assay type: cell-based, murine PDEs; yeast Cgs2; conditions: 3,120 bioactive compounds, average 20 μM
measurement-label: hit in high throughput screens (promotes 5FOA^R growth), in words

INSERT INTO measurements (compound, result) VALUES
  ('Cc1cc2cc3c(C)cc(=O)oc3c(C)c2o1 [trioxsalen]', 'identified'),
  ('COc1c2occc2c(OC)c2c(=O)cc(C)oc12 [khellin]', 'identified'),
  ('COc1c2ccoc2cc2oc(C)cc(=O)c12 [visnagin]', 'identified');
